system: mouse trachea; assay: Isometric tracheal tension measurement (organ bath); conditions: 0.5 μM carbachol; cumulative concentrations; Hill function; read-out: IC50, relaxation of carbachol-precontracted trachea
Metric: IC50 (µM)
Answers are plain numbers, in µM.

# query: IC50 | item Cl.c1ccc2c(c1)CCC[C@H]2Nc1nc2ccccc2[nH]1 [NS8593] | system: mouse trachea
31.5

----------
system: mouse trachea; test: Isometric tracheal tension measurement (organ bath); conditions: Mus musculus, 0.5 μM carbachol; cumulative concentrations; Hill function; read-out: IC50, relaxation of carbachol-precontracted trachea
Metric: pIC50
One number for each entry, as −log10 of the molar value.

Need pIC50, item Cl.c1ccc2c(c1)CCC[C@H]2Nc1nc2ccccc2[nH]1 [NS8593]
4.51

----------
Provide the recorded IC50 for the entries that follow.
biological target: human M3 muscarinic acetylcholine receptor (Homo sapiens, UniProt P20309); assay: R-CEPIAer ER calcium assay of Gq-coupled receptor activation, M3-transfected CHO-K1 cells
Sequence (P20309 whole entry): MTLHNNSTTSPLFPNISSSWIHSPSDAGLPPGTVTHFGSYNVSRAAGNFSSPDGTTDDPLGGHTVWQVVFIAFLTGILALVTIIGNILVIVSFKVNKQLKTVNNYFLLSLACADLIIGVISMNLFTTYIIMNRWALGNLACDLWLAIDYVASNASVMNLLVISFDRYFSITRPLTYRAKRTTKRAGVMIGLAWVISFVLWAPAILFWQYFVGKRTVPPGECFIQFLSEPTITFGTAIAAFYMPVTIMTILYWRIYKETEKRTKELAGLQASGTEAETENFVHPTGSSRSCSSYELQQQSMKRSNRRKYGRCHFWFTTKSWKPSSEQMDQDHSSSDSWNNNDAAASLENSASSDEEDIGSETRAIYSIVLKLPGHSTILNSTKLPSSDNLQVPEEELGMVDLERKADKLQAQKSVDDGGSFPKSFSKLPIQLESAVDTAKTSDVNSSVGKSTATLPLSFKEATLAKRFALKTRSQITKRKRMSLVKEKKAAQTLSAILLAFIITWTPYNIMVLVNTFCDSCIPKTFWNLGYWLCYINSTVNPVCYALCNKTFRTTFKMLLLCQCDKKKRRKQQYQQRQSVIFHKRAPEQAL
Field note: include the unit after the figure.

// known answers, use as guide
Cc1cc(=N)c2ccccc2n1CCCCCCCCCCn1c(C)cc(=N)c2ccccc21.Cl.Cl [dequalinium chloride]
270 nM
c1ccc2c(c1)c1cc[n+]2CCCCC[n+]2ccc(c3ccccc32)NCCCCCN1 [UCL 1848]
1000 nM
Cl.c1ccc2c(c1)CCC[C@H]2Nc1nc2ccccc2[nH]1 [NS8593]
83000 nM

Shifting focus to the compound that follows.
# query: IC50 | item c1cc2cc(c1)C[n+]1ccc(c3ccccc31)NCc1ccc(cc1)CNc1cc[n+](c3ccccc13)C2 [UCL 1684] | system: human M3 muscarinic acetylcholine receptor (Homo sapiens, UniProt P20309)
1500 nM
